B1: Alpha-lactalbumin, P00712 (parent)
chain: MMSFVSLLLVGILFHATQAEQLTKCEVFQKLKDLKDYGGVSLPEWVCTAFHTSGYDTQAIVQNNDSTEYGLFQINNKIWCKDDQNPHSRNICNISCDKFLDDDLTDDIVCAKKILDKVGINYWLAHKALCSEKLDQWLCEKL

variants of: B1; settings: Capra hircus; pH 7; 25 °C; GdnHCl; CD; sodium cacodylate 50 mM; NaCl 50 mM; reversible: yes; structure 1HFY; whole UniProt chain shown
Classification field: 1 (yes) = denaturant m value at or over 3 kcal/mol/M; 0 (no) = denaturant m value under 3 kcal/mol/M.

Confirm if denaturant m value reported for the variant A49I T52I is 3 kcal/mol/M or above.
0 (no)

Confirm if denaturant m value reported for the variant "A49T" is 3 kcal/mol/M or above.
1 (yes)

Confirm if denaturant m value reported for the variant "T52I" is 3 kcal/mol/M or above.
0 (no)

Confirm if denaturant m value reported for the variant "A49I" is 3 kcal/mol/M or above.
0 (no)

Confirm if denaturant m value reported for the variant "T48I" is 3 kcal/mol/M or above.
0 (no)
